Biological target: BRD4 (BD2) (Homo sapiens, UniProt O60885)
Construct: recombinant human BRD4 (BD2; aa 349-460)
Assay: AlphaScreen FRET binding assay, BRD4 (BD2)
Conditions: read-out: IC50 value for the inhibition of BRD4 (BD2)
Label key: t means IC50 under 20 nM; f means IC50 of 20 nM or more.

Answered examples (3):
compound: Cc1cc(-c2c(F)ccc3cc(C4CCCN4c4nc(N)nc5[nH]cnc45)c(N4CCOCC4)nc23)cn(C)c1=O (stereo not shown) [Compound 14]
group-label: f

compound: Cn1cc(-c2cccc3cc([C@@H]4CCCN4c4nc(N)nc(N)c4C#N)c(N4CCOCC4)nc23)c2cc[nH]c2c1=O [Compound 24]
group-label: t

compound: Cc1cc(-c2ccc(F)c3cc(C4CCCN4c4nc(N)nc(N)c4C#N)c(N4CCOCC4)nc23)cn(C)c1=O (stereo not shown) [Compound 17]
group-label: f

Ask: Quick check: IC50 of Cc1cc(-c2cccc3cc(C4CCCN4c4ncnc(N)c4C#N)c(N(C)C)nc23)cn(C)c1=O (stereo not shown) [Compound 19] under 20 nM?
Result: t

Ask: Quick check: IC50 of Cc1cc(-c2ccc3cc(C4CCCN4c4ncnc(N)c4C#N)c(N4CCOCC4)nc3c2)cn(C)c1=O (stereo not shown) [Compound 8] under 20 nM?
Result: t

Ask: Quick check: IC50 of Cc1cc(-c2cccc3cc([C@@H]4CCCN4c4ncnc(N)c4C#N)c(N4CCOCC4)nc23)cn(C)c1=O [Compound 23] under 20 nM?
Result: t

Ask: Quick check: IC50 of CC(C)Nc1nc2c(-c3cn(C)c(=O)c4[nH]ccc34)cccc2cc1C1CCCN1c1ncnc(N)c1C#N (stereo not shown) [Compound 22] under 20 nM?
Result: f

----------
Target: PI3Kβ (p110β/p85α) (Homo sapiens)
Sequence (P42338 whole entry): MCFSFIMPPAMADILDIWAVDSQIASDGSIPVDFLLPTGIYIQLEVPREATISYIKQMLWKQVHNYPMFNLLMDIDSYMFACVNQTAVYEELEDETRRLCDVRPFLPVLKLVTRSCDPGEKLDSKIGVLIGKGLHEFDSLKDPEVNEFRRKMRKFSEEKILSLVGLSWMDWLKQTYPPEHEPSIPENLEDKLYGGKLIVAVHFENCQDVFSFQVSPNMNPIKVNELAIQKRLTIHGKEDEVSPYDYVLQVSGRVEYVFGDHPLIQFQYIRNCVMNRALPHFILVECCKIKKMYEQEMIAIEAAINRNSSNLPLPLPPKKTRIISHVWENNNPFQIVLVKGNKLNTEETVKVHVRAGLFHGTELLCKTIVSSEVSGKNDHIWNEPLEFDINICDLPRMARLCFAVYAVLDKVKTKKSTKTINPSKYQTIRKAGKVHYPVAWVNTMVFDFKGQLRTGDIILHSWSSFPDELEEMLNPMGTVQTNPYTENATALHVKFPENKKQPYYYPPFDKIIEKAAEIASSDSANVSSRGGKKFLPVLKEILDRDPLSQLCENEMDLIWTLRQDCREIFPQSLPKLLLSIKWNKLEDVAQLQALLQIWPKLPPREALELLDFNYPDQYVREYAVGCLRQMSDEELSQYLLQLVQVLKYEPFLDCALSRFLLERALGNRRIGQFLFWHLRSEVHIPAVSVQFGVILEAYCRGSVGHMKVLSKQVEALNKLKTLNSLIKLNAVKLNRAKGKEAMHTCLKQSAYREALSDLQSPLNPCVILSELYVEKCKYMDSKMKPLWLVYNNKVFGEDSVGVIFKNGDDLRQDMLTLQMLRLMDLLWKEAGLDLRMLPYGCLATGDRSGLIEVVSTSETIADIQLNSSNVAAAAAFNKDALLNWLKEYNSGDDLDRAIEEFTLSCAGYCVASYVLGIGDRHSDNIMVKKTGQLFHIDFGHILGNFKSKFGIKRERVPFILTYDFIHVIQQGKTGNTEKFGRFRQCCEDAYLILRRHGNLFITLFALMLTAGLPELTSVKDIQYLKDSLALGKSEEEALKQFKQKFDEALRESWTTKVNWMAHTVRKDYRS
Sequence (P27986 whole entry partner): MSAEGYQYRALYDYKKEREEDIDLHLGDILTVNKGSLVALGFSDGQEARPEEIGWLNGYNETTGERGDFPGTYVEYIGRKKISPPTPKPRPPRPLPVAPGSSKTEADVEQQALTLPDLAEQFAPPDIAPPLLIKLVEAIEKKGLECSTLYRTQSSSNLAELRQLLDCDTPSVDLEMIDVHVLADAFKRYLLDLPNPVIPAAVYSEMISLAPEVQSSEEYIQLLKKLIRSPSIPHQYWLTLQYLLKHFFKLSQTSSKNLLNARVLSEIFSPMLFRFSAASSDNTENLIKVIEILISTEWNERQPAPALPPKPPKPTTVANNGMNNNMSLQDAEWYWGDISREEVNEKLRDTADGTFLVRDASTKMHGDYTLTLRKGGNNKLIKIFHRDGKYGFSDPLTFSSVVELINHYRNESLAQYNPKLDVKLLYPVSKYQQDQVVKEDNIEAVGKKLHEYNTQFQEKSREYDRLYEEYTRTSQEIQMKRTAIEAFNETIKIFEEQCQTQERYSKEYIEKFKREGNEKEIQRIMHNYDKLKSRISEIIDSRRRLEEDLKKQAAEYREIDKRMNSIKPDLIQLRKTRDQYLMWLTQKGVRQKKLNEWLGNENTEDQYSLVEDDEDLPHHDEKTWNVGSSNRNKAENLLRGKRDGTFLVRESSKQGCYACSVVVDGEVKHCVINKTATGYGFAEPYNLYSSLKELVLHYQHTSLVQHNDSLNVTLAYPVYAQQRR
Test: cell-free PI3K HTRF assay, PI3Kβ
Assignment: determine reported pIC50 for the given compounds.
One number for each entry, as −log10 of the molar value.

compound: Cc1cc(-c2cccc3cc(C4CCCN4c4ncnc(N)c4C#N)c(N4CCOCC4)nc23)cn(C)c1=O (stereo not shown)
pIC50: 6.25
//
compound: Cn1cc(-c2cccc3cc(CNc4nc(N)nc(N)c4C#N)c(N4CCOCC4)nc23)c2cc[nH]c2c1=O
pIC50: 7.36
//
compound: Cc1cc(-c2cccc3cc(C4CCCN4c4ncnc(N)c4C#N)c(-c4ccccc4)nc23)cn(C)c1=O (stereo not shown)
pIC50: 6.45

I'm hoping you can list pIC50 for every compound here, please.
1. Cc1cc(-c2cccc3cc([C@@H]4CCCN4c4ncnc(N)c4C#N)c(N4CCOCC4)nc23)cn(C)c1=O
2. Cc1cc(-c2cccc3cc(C4CCCN4c4ncnc(N)c4C#N)c(-c4cccnc4)nc23)cn(C)c1=O (stereo not shown)

Result:
1. 6.72
2. 6.58

----------
Assignment: determine reported pIC50 for the given compounds.
Molecular target: PI3Kγ (p110γ) (Homo sapiens, UniProt P48736)
Sequence (P48736 whole entry): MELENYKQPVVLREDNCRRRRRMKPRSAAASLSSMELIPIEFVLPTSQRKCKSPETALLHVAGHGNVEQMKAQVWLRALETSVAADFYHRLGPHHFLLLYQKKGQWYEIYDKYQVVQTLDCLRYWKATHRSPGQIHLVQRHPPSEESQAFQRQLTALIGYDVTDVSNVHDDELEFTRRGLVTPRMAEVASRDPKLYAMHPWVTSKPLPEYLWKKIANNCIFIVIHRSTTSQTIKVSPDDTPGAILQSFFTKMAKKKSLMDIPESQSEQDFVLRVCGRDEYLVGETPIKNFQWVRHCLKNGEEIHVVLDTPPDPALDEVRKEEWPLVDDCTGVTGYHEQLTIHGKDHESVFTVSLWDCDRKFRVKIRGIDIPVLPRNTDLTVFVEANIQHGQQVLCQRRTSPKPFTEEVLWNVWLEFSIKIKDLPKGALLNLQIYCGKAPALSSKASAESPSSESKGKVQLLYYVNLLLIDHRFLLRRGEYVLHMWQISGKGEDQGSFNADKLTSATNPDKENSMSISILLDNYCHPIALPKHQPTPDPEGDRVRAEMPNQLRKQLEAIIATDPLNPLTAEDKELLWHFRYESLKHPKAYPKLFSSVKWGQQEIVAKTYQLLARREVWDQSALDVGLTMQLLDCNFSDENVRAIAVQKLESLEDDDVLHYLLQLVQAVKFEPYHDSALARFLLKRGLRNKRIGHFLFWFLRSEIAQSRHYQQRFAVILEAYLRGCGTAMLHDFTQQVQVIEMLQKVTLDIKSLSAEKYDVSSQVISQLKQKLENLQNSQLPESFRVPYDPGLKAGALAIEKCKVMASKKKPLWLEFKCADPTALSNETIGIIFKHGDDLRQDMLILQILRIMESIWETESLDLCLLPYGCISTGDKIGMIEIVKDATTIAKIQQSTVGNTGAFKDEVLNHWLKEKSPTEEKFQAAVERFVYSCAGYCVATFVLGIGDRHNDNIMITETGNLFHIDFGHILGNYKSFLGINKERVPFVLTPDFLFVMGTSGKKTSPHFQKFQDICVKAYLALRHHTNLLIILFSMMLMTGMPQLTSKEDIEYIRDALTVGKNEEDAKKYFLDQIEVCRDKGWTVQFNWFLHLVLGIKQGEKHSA
Test: cell-free PI3K HTRF assay, PI3Kγ
Numbers only, as −log10 of the molar value.

I'm hoping you can list pIC50 for every compound here, please.
1. Cc1cc(-c2cccc3cc(C4CCCN4c4ncnc(N)c4C#N)c(-c4cccnc4)nc23)cn(C)c1=O (stereo not drawn) [Compound 29]
2. Cc1cc(-c2cccc3cc(C4CCCN4c4ncnc(N)c4C#N)c(-c4ccccc4)nc23)cn(C)c1=O (stereo not drawn) [Compound 28]

Result:
[7.72, 7.93]
